// provenance: patent US8906829B2

# Test system: C. reinhardtii CC-1928
# ASSAY PROTOCOL: Effect of copper on activity of hydrazones: in vitro growth inhibition of C. reinhardtii in TAP Cu minus / TAP Cu plus medium (Example 10)
# Format: cell-based, Chlamydomonas reinhardtii
# ASSAY CONDITIONS: test compound 1 μg/mL; TAP Cu plus medium (CuCl2); 48 h
VALUE TYPE: % Inhn. Plus Copper Observed (%)
Output spec: scalar in %, unitless text.

Output % Inhn. Plus Copper Observed of `O=C(N/N=C/c1cccc(Cl)c1O)c1cccc(Cl)c1`
96

Output % Inhn. Plus Copper Observed of `C/C(=N\NC(=O)c1cccc(Cl)c1)c1cc(Cl)cc(Cl)c1O`
97

Output % Inhn. Plus Copper Observed of `O=C(N/N=C/c1cc(Cl)cc(C(F)(F)F)c1O)c1ccc(Cl)cc1`
97
